Consider the following molecules; for each one, report its TGI.
tested on: SW-620 colon; experiment: NCI tumour cell line growth inhibition, 48 h
Give bare numbers, in µM.

These solved cases illustrate the format of a correct answer.
{"columns": ["molecule", "systemTested", "resultUnits", "TGI"],
 "data": [
  ["COc1ccc(-n2nc(C)c3c(Nc4ccc(NC(=O)Nc5cc(C(F)(F)F)ccc5F)cc4)ncnc32)cc1", "SW-620 colon", "µM", 22.6],
  ["COC(=O)c1ccc(NCc2cc(O)c3ccccc3c2O)cc1", "SW-620 colon", "µM", 32.3],
  ["CN(C)c1ncc(-c2c[nH]c3ccccc23)nc1-c1c[nH]c2ccccc12", "SW-620 colon", "µM", 11.8]
]}

Consider the following items and state reported TGI for each.
1. C#CCCCCC#CC1CCCC1C1=CC(=O)c2ccccc21 (stereo not given)
2. COc1ccc(OC)c2c1C(=O)C(Cl)=C(Cl)C2=O
3. CN1C(=O)c2cccc3c([N+](=O)[O-])ccc(c23)C1=O
4. O=C1c2ccccc2C(=O)c2c1c(NCCNCCO)c1cc[nH]c1c2NCCNCCO

OUTPUT:
[6.39, 3.6, 6.12, 25.9]

# map each molecule to its TGI
1. O=c1c2ccccc2c(C=NCCNCCO)c2oc3ccccc3n12
2. CCN(CCc1ccc(F)cc1)c1ccc(CO)c(Cl)c1
3. COc1cccc(NC(=O)c2ccc(C(F)(F)F)nc2Nc2ccc(Cl)cc2C)c1
4. Fc1ccc(C(OCCN2CC3CC2CN3CCCc2ccccc2)c2ccc(F)cc2)cc1 (stereo not given)
5. CC(C)NCCCNC1=C(Cl)C(=O)c2ccccc2C1=O
6. C=C(C)[C@@H]1CC[C@]2(C)[C@H](CC=C3[C@@H]4CC(C)(C)CC[C@]4(C(=O)OC)CC[C@]32C)[C@@]1(C)CC/C(N)=N/O
7. CC1=CC(=O)c2cccc(O)c2C1=O
8. C[C@]1(O)CC(=O)[C@]2(O)C3=C(C=C[C@]2(O)C1)C(=O)c1c(O)cccc1C3=O

OUTPUT:
1. 17
2. 24.2
3. 28.7
4. 24.1
5. 3.37
6. 4.32
7. 4.08
8. 3.35

INPUT: Reported TGI, molecule CN1CCN(c2ccc3nc(-c4ccc5nc(-c6ccc(C(F)(F)F)cc6)[nH]c5c4)[nH]c3c2)CC1 : ____
OUTPUT: 3.09

====

For each entry below, report its TGI value.
test system: NCI-H23 lung; test: NCI tumour cell line growth inhibition, 48 h

The cases that follow already have their TGI on record.
{"columns": ["molecule", "measurement"],
 "data": [
  ["Nc1nc(SCCC/C=C/B(O)O)nc2c1ncn2C1OC(CO)C(O)C1O (stereo not drawn)", "> 243 µM"],
  ["Clc1ccc(OCc2nnc(CCCCCCCCc3nnc(COc4ccc(Cl)cc4)o3)o2)cc1", "> 100 µM"]
]}

Attention now turns to another entry.
INPUT: Given CCC1N2CCCCC2[C@@H]2c3[nH]c4ccccc4c3CCN12 (stereo partly drawn) , state its recorded TGI.
OUTPUT: > 100 µM

====

system: COLO 205 colon; assay: NCI tumour cell line growth inhibition, 48 h
Record form. Attribute: TGI. Fill in for each entry.
Answers are plain numbers, in µM.

{"columns": ["compound", "resultUnits", "TGI"],
 "data": [
  ["O=C1C=CC(=O)c2c(O)c(Nc3ccc(OC(F)(F)F)cc3)c(Cl)c(O)c21", "µM", 2.84],
  ["COc1ncnc2c1ncn2C/C(Br)=C(\\Br)CCl", "µM", 3.18],
  ["CC(=O)OC1C(O)COC(Oc2c(C)c3c4c(c2O)[C@@H](C)CC[C@@H]4[C@@H](C)C[C@H]3C=C(C)C)C1O (stereo partly specified)", "µM", 50.5],
  ["Cc1cc(C)c(S(=O)(=O)Oc2ccccc2[N+](=O)[O-])c(C)c1", "µM", 12.9]
]}

Kindly review the next compound as well.
INPUT: # value lookup — system COLO 205 colon, readout TGI, item NC(Cc1ccc2oc3cc(=O)c4ccccc4c-3nc2c1)C(=O)O (stereo unspecified)
OUTPUT: 21.5

====

Give measured TGI for each item. Keep answers brief.
tested on: UO-31 renal; test: NCI tumour cell line growth inhibition, 48 h

{"columns": ["compound", "TGI"],
 "data": [
  ["COc1cc2c(cc1O)CCN[C@@]21CS[C@H]2c3c(OC(C)=O)c(C)c4c(c3C(COC1=O)N1C2C2c3c(cc(C)c(OC)c3O)CC([C@@H]1O)N2C)OCO4 (some centres undefined)", "< 1e-06 µM"],
  ["Cc1ccc2c(c1)C(=O)C1(C2)Cc2ccc(C)cc2C1=O", "> 100 µM"],
  ["CCC(=O)[O-].CCC(=O)[O-].N.N.N.N.[Co+3].[O-][Cl+3]([O-])([O-])[O-]", "> 100 µM"]
]}

Now, please, on to the next compound.
INPUT: Consider the compound Cc1ccc(-c2n[nH]c(=O)n2N)cc1 and give its measured TGI.
OUTPUT: > 100 µM

====

Provide the reported TGI of each item.
test system: DMS 114 small cell lung; assay: NCI tumour cell line growth inhibition, 48 h

Worked set:
{"columns": ["molecule", "TGI"],
 "data": [
  ["CCOC(=O)C1=C(C)N2CCCOC2(C)C(C(=O)OC)C1c1cccc([N+](=O)[O-])c1 (stereo unspecified)", "> 100 µM"],
  ["CC(=O)C1C(=O)C(=O)N(c2ccc(Cl)cc2C)C1=O (stereo unspecified)", "> 100 µM"],
  ["CC1(Br)C(=O)NC(=O)N([C@H]2C[C@H](O)[C@@H](CO)O2)C1N=[N+]=[N-] (stereo partly specified)", "> 100 µM"],
  ["NC(CCc1nc(-c2ccccc2)cs1)C(=O)O (stereo unspecified)", "> 100 µM"],
  ["CN1C(=O)NC2(O)c3ccccc3C(=O)C12O (stereo unspecified)", "> 100 µM"]
]}

INPUT: Which TGI reading was recorded for the molecule CN(C)CC1CCC(CN(C)C)C1=NO (stereo unspecified) ?
OUTPUT: > 100 µM

====

Task for the reader: assign each of the following molecules its reported TGI.
tested on: UACC-62 melanoma; assay: NCI tumour cell line growth inhibition, 48 h
Give bare numbers, in µM.

Consider the reported TGI for these molecules:
{"columns": ["substanceSmiles", "systemTested", "attributeMeasured", "measurement"],
 "data": [
  ["CCCCCn1ncc(-c2c(O)c(O)cc3c(O)c(-c4c(C)cc5c(-c6cnn(CCCCC)n6)c(O)c(O)cc5c4O)c(C)cc23)n1", "UACC-62 melanoma", "TGI", 1.27],
  ["[O-]c1c(-c2ccccc2)[se]c(-c2ccccc2)[n+]1-c1ccccc1", "UACC-62 melanoma", "TGI", 27.5]
]}

Please look at the following molecule next.
INPUT: Return reported TGI; argument: COc1cc(CSc2ccc(O)cc2)cc(O)c1O
OUTPUT: 61.2

====

tested on: SK-MEL-28 melanoma; assay: NCI tumour cell line growth inhibition, 48 h
attributeMeasured: TGI

Below: 9 compounds and their reported TGI.
{"columns": ["compound", "TGI"],
 "data": [
  ["COc1cc(C(C)c2cc3c(cc2OCCOCCOc2cc4c(cc2C(C)c2cc(OC)c(OC)c(OC)c2)OCO4)OCO3)cc(OC)c1OC (stereo not given)", "> 100 µM"],
  ["CC1(Br)C(=O)NC(=O)N([C@H]2C[C@H](O)[C@@H](CO)O2)C1N=[N+]=[N-] (stereo not given in full)", "> 100 µM"],
  ["O=C1c2ccccc2C(=O)c2c1c(NCCNCCO)c1cc[nH]c1c2NCCNCCO", "20.5 µM"],
  ["C=C(C)[C@@H]1CC[C@]2(c3ncc(C)o3)CC[C@]3(C)[C@H](CC[C@@H]4[C@@](C)(CCC#N)[C@H](C(=C)C)CC[C@]43C)[C@@H]12", "18.4 µM"],
  ["N#CC1(C#N)C(c2ccccc2)NC23CCCCC2C1(C#N)C(=O)N3 (stereo not given)", "> 100 µM"],
  ["COc1ccc(/C=C2/CCOC2=O)cc1", "> 100 µM"],
  ["COc1ccc(-n2nc(C)c3c(Nc4ccc(NC(=O)Nc5cc(C(F)(F)F)ccc5F)cc4)ncnc32)cc1", "6.29 µM"],
  ["C#CCCCCC#CC1CCCC1C1=CC(=O)c2ccccc21 (stereo not given)", "18.5 µM"],
  ["N#CC(C(=N/NC(N)=S)/C(=N\\NC(N)=S)C(C#N)c1ccccc1)c1ccccc1 (stereo not given)", "> 10 µM"]
]}

Let's switch to this compound now.
INPUT: What value of TGI has been recorded for this entry: CCCCCCCCOC(=O)c1cc(O)c(O)c(O)c1
OUTPUT: 29.6 µM

Reference source: PubChem BioAssay (NCI)
